Below, each of the molecules is paired with its reported Ki value.
Sequence of the target: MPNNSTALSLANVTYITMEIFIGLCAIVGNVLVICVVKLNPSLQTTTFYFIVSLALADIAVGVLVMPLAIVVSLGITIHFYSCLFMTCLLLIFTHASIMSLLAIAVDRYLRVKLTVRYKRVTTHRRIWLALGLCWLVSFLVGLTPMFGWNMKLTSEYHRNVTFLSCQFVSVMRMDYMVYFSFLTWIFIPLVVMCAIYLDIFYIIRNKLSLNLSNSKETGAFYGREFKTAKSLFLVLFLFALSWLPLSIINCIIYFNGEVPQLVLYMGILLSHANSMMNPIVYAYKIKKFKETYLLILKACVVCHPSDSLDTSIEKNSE

Cn1c(=O)c2c(nc3n2CCN([C@@H]2CCCc4ccccc42)C3)n(C)c1=O : 14 µM
Cn1c(=O)c2c(nc3n2CCN([C@H]2CCc4ccccc42)C3)n(C)c1=O : > 10 µM
Cn1c(=O)c2c(nc3n2CCN(CCc2c(Cl)cccc2Cl)C3)n(C)c1=O : > 10 µM

The molecule identified as Cn1c(=O)c2c(nc3n2CCN(CCc2cccc(C(F)(F)F)c2)C3)n(C)c1=O registered its Ki at > 10 µM

###

Target: Adenosine receptor A3 (Homo sapiens) (UniProt P0DMS8)
Assay: Displacement of [3H]PSB-11 from human A3 receptor expressed in CHO cell membrane at 10 uM by liquid scintillation counting method relative to control relative to control
Assay type: cell membranes
Below, each of the compounds is paired with its reported Activity value.
Mention the unit after the number when you answer.

Cn1c(=O)c2c(nc3n2CCN(c2ccc(F)cc2)C3)n(C)c1=O : 24%
Cn1c(=O)c2c(nc3n2CCN(CCc2cc(C(F)(F)F)ccc2F)C3)n(C)c1=O : 14%
Cn1c(=O)c2c(nc3n2CCN(CCc2c(Cl)cccc2Cl)C3)n(C)c1=O : 10%
Cn1c(=O)c2c(nc3n2CCN(c2cccc(F)c2)C3)n(C)c1=O : 18%
Cn1c(=O)c2c(nc3n2CCN(CCOc2cccc(F)c2)C3)n(C)c1=O : 42%
COc1ccccc1CCN1CCn2c(nc3c2c(=O)n(C)c(=O)n3C)C1 : 39%

The compound identified as Cn1c(=O)c2c(nc3n2CCN(CCc2ccc(Cl)cc2)C3)n(C)c1=O registered its Activity at 37%

The compound identified as Cn1c(=O)c2c(nc3n2CCN(CCc2cccc(F)c2)C3)n(C)c1=O registered its Activity at 16%

The compound identified as Cn1c(=O)c2c(nc3n2CCN(CCOc2ccccc2F)C3)n(C)c1=O registered its Activity at 41%

The compound identified as Cn1c(=O)c2c(nc3n2CCN(CCOc2ccccc2)C3)n(C)c1=O registered its Activity at 32%

###

Molecular target: Adenosine receptor A3 (Homo sapiens) (UniProt P0DMS8)
Assay: Displacement of [3H]PSB-11 from human A3 receptor expressed in CHO cell membrane at 3 uM by liquid scintillation counting method relative to control relative to control
Format: cell membranes
Label label 1 when Activity is at or above 9%; anything below gets label 0.

Cn1c(=O)c2c(nc3n2CCN(CCCn2cccc2)C3)n(C)c1=O : label 0
C#CCN1CCn2c(nc3c2c(=O)n(C)c(=O)n3C)C1 : label 1
Cn1c(=O)c2c(nc3n2CCN(C2Cc4ccccc4C2)C3)n(C)c1=O : label 1

Could you now look at the following compound, please?
Identify whether the reported Activity of the following compound is 9% or greater: COc1ccc(Br)cc1CCN1CCn2c(nc3c2c(=O)n(C)c(=O)n3C)C1
label 1

###

Below, each of the compounds is paired with its reported Activity value.
Biological target: UniProtKB P0DMS8
Sequence (whole entry): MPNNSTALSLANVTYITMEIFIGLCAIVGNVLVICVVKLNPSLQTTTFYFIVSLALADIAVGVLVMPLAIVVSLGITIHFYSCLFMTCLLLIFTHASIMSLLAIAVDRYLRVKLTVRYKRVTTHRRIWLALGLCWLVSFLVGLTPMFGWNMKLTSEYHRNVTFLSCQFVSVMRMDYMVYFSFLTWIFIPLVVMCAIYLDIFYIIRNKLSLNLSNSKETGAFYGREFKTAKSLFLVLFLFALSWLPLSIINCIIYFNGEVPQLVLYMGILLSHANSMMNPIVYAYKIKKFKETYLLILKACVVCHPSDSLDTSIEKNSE
Assay: Displacement of [3H]PSB-11 from human A3 receptor expressed in CHO cell membrane at 10 uM by liquid scintillation counting method relative to control relative to control
Format: cell membranes
Please give a number only; it is taken to be in %.

Cc1sc(-c2ccc(C(F)(F)F)cc2)nc1CN1CCn2c(nc3c2c(=O)n(C)c(=O)n3C)C1 : 40

The compound identified as COc1cccc(CCN2CCn3c(nc4c3c(=O)n(C)c(=O)n4C)C2)c1 registered its Activity at 23

The compound identified as Cn1c(=O)c2c(nc3n2CCN(CCc2cccc(C(F)(F)F)c2)C3)n(C)c1=O registered its Activity at 29

The compound identified as Cn1c(=O)c2c(nc3n2CCN(CCCc2ccc(Cl)cc2)C3)n(C)c1=O registered its Activity at 34

The compound identified as Cn1c(=O)c2c(nc3n2CCN(c2cccc(Cl)c2)C3)n(C)c1=O registered its Activity at 20

The compound identified as Cn1c(=O)c2c(nc3n2CCN(CCc2ccccc2)C3)n(C)c1=O registered its Activity at 43

The compound identified as COc1cccc(N2CCn3c(nc4c3c(=O)n(C)c(=O)n4C)C2)c1 registered its Activity at 32

The compound identified as Cn1c(=O)c2c(nc3n2CCN(Cc2csc(-c4cccc(Cl)c4)n2)C3)n(C)c1=O registered its Activity at 40

The compound identified as Cn1c(=O)c2c(nc3n2CCN(Cc2csc(-c4cccs4)n2)C3)n(C)c1=O registered its Activity at 46

The compound identified as COc1ccc(CCN2CCn3c(nc4c3c(=O)n(C)c(=O)n4C)C2)cc1OC registered its Activity at 43

###

Biological target: UniProt P25099
Sequence (P25099 whole entry): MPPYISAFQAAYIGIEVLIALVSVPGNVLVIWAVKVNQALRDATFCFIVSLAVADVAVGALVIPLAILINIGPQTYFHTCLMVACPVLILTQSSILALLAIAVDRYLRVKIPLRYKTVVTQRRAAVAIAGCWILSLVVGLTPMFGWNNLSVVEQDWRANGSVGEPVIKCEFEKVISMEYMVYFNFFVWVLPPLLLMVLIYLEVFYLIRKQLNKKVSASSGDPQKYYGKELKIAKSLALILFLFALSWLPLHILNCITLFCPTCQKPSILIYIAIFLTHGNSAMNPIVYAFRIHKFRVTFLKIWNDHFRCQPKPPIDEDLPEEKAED
Experiment: Displacement of [3H]CCPA from A1 receptor in rat brain cortex membranes by liquid scintillation counting method
Format: cell membranes
measurement_label: Ki

Cn1c(=O)c2c(nc3n2CCN(CCCc2cccc(Br)c2)C3)n(C)c1=O : > 1500 nM

The compound identified as Cn1c(=O)c2c(nc3n2CCN(CC#Cc2cccc(Cl)c2)C3)n(C)c1=O registered its Ki at > 1500 nM

The compound identified as Cn1c(=O)c2c(nc3n2CCN(CCc2cccc(Br)c2)C3)n(C)c1=O registered its Ki at > 1500 nM

The compound identified as Cn1c(=O)c2c(nc3n2CCN(CCc2ccc(O)cc2)C3)n(C)c1=O registered its Ki at > 1500 nM

###

Below, each of the compounds is paired with its reported Activity value.
Biological target: Adenosine receptor A3 (Homo sapiens) (UniProt P0DMS8)
Sequence (whole entry): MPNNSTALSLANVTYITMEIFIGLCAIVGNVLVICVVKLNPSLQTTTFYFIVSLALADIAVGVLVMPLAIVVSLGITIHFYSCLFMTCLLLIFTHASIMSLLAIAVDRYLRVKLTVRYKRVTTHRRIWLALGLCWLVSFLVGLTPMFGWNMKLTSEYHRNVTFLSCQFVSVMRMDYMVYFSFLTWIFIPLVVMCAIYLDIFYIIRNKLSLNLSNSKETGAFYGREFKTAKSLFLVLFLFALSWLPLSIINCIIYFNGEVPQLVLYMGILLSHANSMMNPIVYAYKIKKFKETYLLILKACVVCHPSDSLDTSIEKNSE
Assay: Displacement of [3H]PSB-11 from human A3 receptor expressed in CHO cell membrane at 10 uM by liquid scintillation counting method relative to control relative to control
Assay type: cell membranes

Look over these answered cases.
Cn1c(=O)c2c(nc3n2CCN(CCOc2ccc(Cl)c(Cl)c2)C3)n(C)c1=O : 36%
Cn1c(=O)c2c(nc3n2CCN(c2ccccc2)C3)n(C)c1=O : 32%
Cn1c(=O)c2c(nc3n2CCN(CC#Cc2ccc(Cl)c(Cl)c2)C3)n(C)c1=O : 35%
Cn1c(=O)c2c(nc3n2CCN(Cc2csc(-c4ccc(Cl)cc4)n2)C3)n(C)c1=O : 43%
Cn1c(=O)c2c(nc3n2CCN([C@H]2CCc4ccccc42)C3)n(C)c1=O : 33%

The compound identified as COc1cccc2c1CC[C@H](N1CCn3c(nc4c3c(=O)n(C)c(=O)n4C)C1)C2 registered its Activity at 8%

The compound identified as Cn1c(=O)c2c(nc3n2CCN(c2cccc4ccccc24)C3)n(C)c1=O registered its Activity at 29%

The compound identified as Cn1c(=O)c2c(nc3n2CCN(CCc2cccc(Br)c2)C3)n(C)c1=O registered its Activity at 42%

The compound identified as Cn1c(=O)c2c(nc3n2CCN(CCc2ccccc2Br)C3)n(C)c1=O registered its Activity at 35%

The compound identified as Cn1c(=O)c2c(nc3n2CCN(CCc2ccc(F)c(F)c2)C3)n(C)c1=O registered its Activity at 11%

The compound identified as Cn1c(=O)c2c(nc3n2CCN(CCCc2ccccc2)C3)n(C)c1=O registered its Activity at 20%

The compound identified as Cn1c(=O)c2c(nc3n2CCN(C2CCN(Cc4ccccc4)CC2)C3)n(C)c1=O registered its Activity at 10%

The compound identified as Cn1c(=O)c2c(nc3n2CCN(CCn2cccc2)C3)n(C)c1=O registered its Activity at 37%

The compound identified as Cn1c(=O)c2c(nc3n2CCN(Cc2ccccc2)C3)n(C)c1=O registered its Activity at 21%

The compound identified as COc1cccc(C#CCN2CCn3c(nc4c3c(=O)n(C)c(=O)n4C)C2)c1 registered its Activity at 9%

The compound identified as Cn1c(=O)c2c(nc3n2CCN(CCCc2cccc(Br)c2)C3)n(C)c1=O registered its Activity at 35%

The compound identified as Cn1c(=O)c2c(nc3n2CCN(CCc2cccc(Cl)c2)C3)n(C)c1=O registered its Activity at 10%
